Assay: Plasma protein binding by RED in artificial plasma (PBS with recombinant human AAG and albumin)
Type: in vitro ADME
Conditions: human, AAG 2 mg/mL, albumin 40 mg/mL, lurbinectedin 500 ng/mL; read-out: mean percent unbound
measured endpoint: fraction unbound at 8 h, 500 ng/mL
Just the number, please, no unit attached.

fraction unbound at 8 h, 500 ng/mL lookup needed for `COc1ccc2[nH]c3c(c2c1)CCN[C@]31CS[C@@H]2c3c(OC(C)=O)c(C)c4c(c3[C@H](COC1=O)N1[C@@H]2[C@H]2c3c(cc(C)c(OC)c3O)C[C@@H]([C@@H]1O)N2C)OCO4` , thanks.
0.00259

Entry source: paper PMC10062662
